Please provide measured kinact for the entries that follow.
- target_of_assay: porcine pancreatic elastase (PPE) (Sus scrofa)
- Sequence (P00772 27-266): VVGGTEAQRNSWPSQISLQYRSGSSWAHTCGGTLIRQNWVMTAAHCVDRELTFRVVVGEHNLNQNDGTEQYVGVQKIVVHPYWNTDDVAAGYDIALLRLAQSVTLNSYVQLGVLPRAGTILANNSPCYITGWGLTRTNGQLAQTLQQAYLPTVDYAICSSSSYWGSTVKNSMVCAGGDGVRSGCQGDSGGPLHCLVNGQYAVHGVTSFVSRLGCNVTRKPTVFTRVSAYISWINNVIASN
- experiment_summary: Deactivation of porcine pancreatic elastase (PPE), Kitz and Wilson / Hart and O'Brian kinetics
- Format: biochemical
- experimental_setup: 37° C., pH 8, 0.1M tris buffer, Kitz and Wilson (5a, 5c, 5e, 10a), Hart and O'Brian (5a, 5'a), read-out: ki (first order constant for the formation of the deactivated enzyme), PPE
A complete answer gives the number and then names the unit.

{"compound": "CS(=O)(=O)OCc1ccccc1N1CC(F)(F)C1=O [Compound 5c]", "observation_type": "kinact", "val": "0.017 s⁻¹"}
{"compound": "O=C1N(c2ccccc2CCl)CC1(Cl)Cl [Compound 5e]", "observation_type": "kinact", "val": "0.028 s⁻¹"}
{"compound": "O=C1N(c2ccccc2CCl)CC1(F)Br (centres unmarked) [5'a]", "observation_type": "kinact", "val": "0.048 s⁻¹"}
{"compound": "O=C1N(c2ccc(CCl)cc2)CC1(F)F [Compound 10a]", "observation_type": "kinact", "val": "0.075 s⁻¹"}

Moving on to the next compound.
Incoming: Form field: reported kinact of O=C1N(c2ccccc2CCl)CC1(F)F [Compound 5a]
Outgoing: 0.031 s⁻¹

----------
- target_of_assay: UniProtKB P08246
- experiment_summary: Deactivation of human leucocytic elastase (HLE), Kitz and Wilson kinetics
- Format: biochemical
- experimental_setup: 37° C., pH 8, 0.1M tris buffer, Brij 0.01%, NaN3 0.02%, Kitz and Wilson, read-out: ki (first order constant for the formation of the deactivated enzyme), HLE
observation_type: kinact (s⁻¹)
Give bare numbers, in s⁻¹.

These solved cases illustrate the format of a correct answer.
{"molecule": "CS(=O)(=O)OCc1ccccc1N1CC(F)(F)C1=O [Compound 5c]", "val": 0.05}
{"molecule": "O=C1N(c2ccccc2CCl)CC1(Cl)Cl [Compound 5e]", "val": 0.03}
{"molecule": "O=C1N(c2ccccc2CCl)CC1(F)F [Compound 5a]", "val": 0.005}

Moving on to the next molecule.
Incoming: Form field: reported kinact of O=C1N(c2ccccc2CCl)CC1(F)Br (stereo not shown) [5'a]
Outgoing: 0.37

----------
- target_of_assay: porcine pancreatic elastase (PPE) (Sus scrofa)
- experiment_summary: Deactivation of porcine pancreatic elastase (PPE), Kitz and Wilson / Hart and O'Brian kinetics
- Type: biochemical
- experimental_setup: 37° C., pH 8, 0.1M tris buffer, read-out: ki/Ki (apparent second order constant characterizing the deactivation), PPE
observation_type: log10 kinact/KI (log10 of the value in M⁻¹ s⁻¹)
Reminder: these figures are log10 of reported kinact/KI, in M⁻¹ s⁻¹ before transformation.

These solved cases illustrate the format of a correct answer.
{"compound": "CS(=O)(=O)OCc1ccccc1N1CC(F)(F)C1=O", "target_of_assay": "porcine pancreatic elastase (PPE) (Sus scrofa)", "observation_type": "log10 kinact/KI", "val": 2.55}
{"compound": "O=C1N(c2ccccc2CCl)CC1(F)Br (centres unmarked)", "target_of_assay": "porcine pancreatic elastase (PPE) (Sus scrofa)", "observation_type": "log10 kinact/KI", "val": 3.75}
{"compound": "O=C1N(c2ccccc2CCl)CC1(F)F", "target_of_assay": "porcine pancreatic elastase (PPE) (Sus scrofa)", "observation_type": "log10 kinact/KI", "val": 3.01}
{"compound": "O=C1N(c2ccccc2CCl)CC1(Cl)Cl", "target_of_assay": "porcine pancreatic elastase (PPE) (Sus scrofa)", "observation_type": "log10 kinact/KI", "val": 1.67}

Moving on to the next compound.
Incoming: Form field: reported log10 kinact/KI of O=C1N(c2ccc(CCl)cc2)CC1(F)F [Compound 10a]
Outgoing: 2.05

----------
- target_of_assay: UniProt:P08246
- experiment_summary: Deactivation of human leucocytic elastase (HLE), Kitz and Wilson kinetics
- experimental_setup: 37° C., pH 8, 0.1M tris buffer, Brij 0.01%, NaN3 0.02%, Kitz and Wilson, read-out: Ki (dissociation constant of the enzyme-inhibitor complex), HLE
- Procedure: All the kinetic measurements are carried out at 37° C. and at a pH of 8 with a 0.1M tris buffer (PPE) or a 0.1M tris buffer, Brij 0.01%, NaN3 0.02% (HLE) (pH 7.5 for compound 5d). […] In this way the first order constant ki is determined for the formation of the deactivated enzyme and the dissociation constant Ki of the enzyme-inhibitor complex. […]
observation_type: Ki
A complete answer gives the number and then names the unit.

{"molecule": "O=C1N(c2ccccc2CCl)CC1(Cl)Cl", "observation_type": "Ki", "val": "500 µM"}

Go through the list and state Ki for each entry.
1. O=C1N(c2ccccc2CCl)CC1(F)Br (stereo not shown)
2. CS(=O)(=O)OCc1ccccc1N1CC(F)(F)C1=O
3. O=C1N(c2ccccc2CCl)CC1(F)F

Outgoing:
1. 1170 µM
2. 500 µM
3. 16.6 µM

----------
- target_of_assay: human leucocytic elastase (HLE) (Homo sapiens, UniProt P08246)
- Sequence (P08246 30-267): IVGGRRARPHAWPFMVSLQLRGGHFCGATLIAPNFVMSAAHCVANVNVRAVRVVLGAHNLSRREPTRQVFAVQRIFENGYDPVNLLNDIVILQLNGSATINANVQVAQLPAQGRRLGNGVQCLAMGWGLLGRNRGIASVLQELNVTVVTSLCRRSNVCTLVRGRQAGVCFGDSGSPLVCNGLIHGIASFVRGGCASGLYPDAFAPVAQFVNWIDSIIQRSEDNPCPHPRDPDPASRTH
- experiment_summary: Deactivation of human leucocytic elastase (HLE), Kitz and Wilson kinetics
- Assay type: biochemical
- experimental_setup: 37° C., pH 8, 0.1M tris buffer, Brij 0.01%, NaN3 0.02%, Kitz and Wilson, read-out: ki/Ki (apparent second order constant characterizing the deactivation), HLE
Please provide measured kinact/KI for the entries that follow.
Answers are plain numbers, in M⁻¹ s⁻¹.

{"compound": "O=C1N(c2ccccc2CCl)CC1(F)Br (centres unmarked)", "unit_descriptor": "M⁻¹ s⁻¹", "val": 316}
{"compound": "O=C1N(c2ccccc2CCl)CC1(Cl)Cl", "unit_descriptor": "M⁻¹ s⁻¹", "val": 60}
{"compound": "O=C1N(c2ccccc2CCl)CC1(F)F", "unit_descriptor": "M⁻¹ s⁻¹", "val": 301}

Moving on to the next compound.
Incoming: Form field: reported kinact/KI of CS(=O)(=O)OCc1ccccc1N1CC(F)(F)C1=O
Outgoing: 100

----------
- experiment_summary: Acute toxicity in male and female mice
- experimental_setup: mouse, in vivo
- Description: The acute toxicity of compound 5a researched on male and female mice exceeds 200 mg/kg.
observation_type: LD50

Incoming: Form field: reported LD50 of O=C1N(c2ccccc2CCl)CC1(F)F [Compound 5a]
Outgoing: > 200 mg/kg

----------
- target_of_assay: porcine pancreatic elastase (PPE) (Sus scrofa)
- experiment_summary: Deactivation of porcine pancreatic elastase (PPE), Kitz and Wilson / Hart and O'Brian kinetics
- experimental_setup: 37° C., pH 8, 0.1M tris buffer, Kitz and Wilson (5a, 5c, 5e, 10a), Hart and O'Brian (5a, 5'a), read-out: Ki (dissociation constant of the enzyme-inhibitor complex), PPE
- Experimental: All the kinetic measurements are carried out at 37° C. and at a pH of 8 with a 0.1M tris buffer (PPE) or a 0.1M tris buffer, Brij 0.01%, NaN3 0.02% (HLE) (pH 7.5 for compound 5d). […] In this way the first order constant ki is determined for the formation of the deactivated enzyme and the dissociation constant Ki of the enzyme-inhibitor complex. […]
Please provide measured Ki for the entries that follow.
Numbers only, in µM.

{"compound": "O=C1N(c2ccccc2CCl)CC1(F)F", "observation_type": "Ki", "val": 30}
{"compound": "O=C1N(c2ccccc2CCl)CC1(F)Br (centres unmarked)", "observation_type": "Ki", "val": 8.5}
{"compound": "O=C1N(c2ccccc2CCl)CC1(Cl)Cl", "observation_type": "Ki", "val": 590}
{"compound": "CS(=O)(=O)OCc1ccccc1N1CC(F)(F)C1=O", "observation_type": "Ki", "val": 48}

Incoming: Form field: reported Ki of O=C1N(c2ccc(CCl)cc2)CC1(F)F [Compound 10a]
Outgoing: 660

Each recorded value in this set is attributed to patent US5030628A.
